Assay: Solubility of Form I and Form II in different solvents (excess shaken 24 hours at 20° C., filtration, UV spectrometry)
Assay type: physicochemical
Conditions: thermodynamic from solid; water (pH = 5.0); 24 hours at 20° C.; read-out: Solubility in g/100 mL of solution
Method: An excess of product (Form I or Form II, where appropriate) was shaken with the relevant solvent during 24 hours at 20° C. After filtration, the concentration of the product in solution was determined with UV spectrometry.
observation type: solubility thermodynamic at 24 h

## Task Would you mind telling me what solubility thermodynamic at 24 h value was observed for COc1ccc2c(O[C@@H]3C[C@H]4C(=O)N[C@]5(C(=O)NS(=O)(=O)C6CC6)C[C@H]5/C=C\CCCCN(C)C(=O)[C@@H]4C3)cc(-c3nc(C(C)C)cs3)nc2c1C [Form I] ?
## Result < 10 µg/mL
